Ref: PubChem BioAssay (EPA / NIEHS)

Assay: CCTE_Shafer_MEA_dev_per_burst_spike_percent: CCTE's Neural Network Formation Assay for Percent of Spikes in a Burst, Shafer Lab (AID 2284032)
Activity calls are given as the source filed them. Rule for the calls: active = hit-call score of the fitted dose curve at least 0.9, where 1 is the maximum; inactive = score below 0.9.
Please answer using one outcome listed in y (active), n (inactive)

Worked set:
| SMILES_DATA | ASSIGNED_CLASS |
| --- | --- |
| CC/C(=C(/CC)c1ccc(O)cc1)c1ccc(O)cc1 | y |
| O=C1O[C@H]([C@@H](O)CO)C(O)=C1O | n |
| CC(C)(c1cc(Br)c(O)c(Br)c1)c1cc(Br)c(O)c(Br)c1 | n |
| c1ccc2ccccc2c1 | n |

Lab log entry: `CN1C(=O)CC[C@H]1c1cccnc1` — outcome as called in the assay?
n

====

Target: Estrogen receptor (Homo sapiens)
Assay: CCTE_Deisenroth_AIME_384WELL_LUC_Active: CCTE's 384-well Estrogen Receptor Transactivation Assay with AIME metabolic competence (ERTA luciferase; metabolism positive), Deisenroth Lab (AID 2284030)
Inconclusive results are not listed. The source made the active and inactive calls. The calls were made as follows: active = hit-call score of the fitted dose curve at least 0.9, where 1 is the maximum; inconclusive = response in the unintended direction; inactive = score below 0.9.
Choose one outcome from this list and give only that: active, inactive

# example entries with known answers
| MOLECULE | ASSIGNED_CLASS |
| --- | --- |
| O=C(Nc1ccc(Cl)cc1)Nc1ccc(Cl)c(Cl)c1 | inactive |
| Cc1c2ccccc2c(C)c2c1ccc1ccccc12 | active |
| OC12N=C(c3ccccc3)SC1Cc1cc(Cl)ccc12 (stereo unspecified) | inactive |
| CC[C@H](NC(=O)c1cc(F)ccc1NS(=O)(=O)c1cccc2cccnc12)c1ccccc1 | inactive |
| OCCO | active |

Field: next molecule
Could you kindly confirm the outcome this assay logged for `COc1cccc([C@H](O)C2CCN(CCc3ccc(F)cc3)CC2)c1OC` ?
inactive

====

Test: ACEA_AR_antagonist_AUC_viability: ACEA Biosciences xCELLigence Real-Time Cell Analysis on Androgen Receptor Antagonism for Viability (AID 2283776);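 note: 22Rv1 human prostate cancer cells growing on impedance electrode plates; area under impedance growth curve at 80 h after dosing as viability; hits lower the growth signal relative to DMSO meaning cytotoxicity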
Records with an inconclusive call do not appear. Calls of active or inactive are those of the source. The calls were made as follows: active = hit-call score of the fitted dose curve at least 0.9, where 1 is the maximum; inconclusive = response in the unintended direction; inactive = score below 0.9.
Field 'call' accepts true (active), false (inactive)

| MOLECULE | ASSIGNED_CLASS |
| --- | --- |
| O=C(O)Cc1cc(I)c(Oc2ccc(O)c(I)c2)c(I)c1 | true |
| CN1C(=O)CC[C@H]1c1cccnc1 | false |
| CCCCCCCCOC(=O)c1cc(O)c(O)c(O)c1 | true |

So what was the verdict on `O=C(O)Cn1c(=O)n(Cc2ccc(Br)cc2F)c(=O)c2ccc(Cl)cc21` in this test?
false

Outcome? `CC[C@@H]1C[C@H](N(Cc2cc(C(F)(F)F)cc(C(F)(F)F)c2)C(C)=O)c2cc(C(F)(F)F)ccc2N1C(=O)OC(C)C`
false

I'd appreciate the recorded outcome for `CC(=O)N1CCN(c2ccc(OC[C@H]3CO[C@](Cn4ccnc4)(c4ccc(Cl)cc4Cl)O3)cc2)CC1` from this test.
true

Tell me the recorded outcome of this test for CN1C(=O)N(c2ccccc2Br)Cc2cnc(Nc3ccc4c(c3)OCC(CO)O4)nc21 (stereo not drawn) .
true

====

Test: APR_HepG2_P-H2AX_24hr: Apredica 24-hour HepG2 Assay for H2AX Phosphorylation (AID 2282920)
Conditions: high-content imaging, actives raise or lower the signal
Experimental: APR_HepG2_24hr is a cell-based, multiplexed-readout assay that uses HepG2, a human liver cell line, with measurements taken at 24 hours after chemical dosing in a 384-well plate.APR_HepG2_P-H2AX_24hr is one of 10 assay component(s) measured or calculated from the APR_HepG2_24hr assay. […] This assay endpoint, APR_HepG2_P-H2AX_24hr, was analyzed with bidirectional fitting relative to DMSO as the negative control and baseline of activity. […]
Calls of active or inactive are those of the source. Rule for the calls: active = hit-call score of the fitted dose curve at least 0.9, where 1 is the maximum; inactive = score below 0.9.
Answer with one of the outcomes yes (1) = active, no (0) = inactive

Worked examples, 3 molecules total:
| SMILES_DATA | ASSIGNED_CLASS |
| --- | --- |
| NC(=O)c1nc(-c2cccc(-c3cc(F)ccc3OCC(F)(F)C(F)(F)F)c2)n[nH]1 | no (0) |
| CCCCCCCCOC(=O)c1cc(O)c(O)c(O)c1 | yes (1) |
| CC[C@H](NC(=O)c1cc(F)ccc1NS(=O)(=O)c1cccc2cccnc12)c1ccccc1 | no (0) |

Field: outcome | Entry: `O=c1c(-c2ccc(O)cc2)coc2cc(O)cc(O)c12`
no (0)

Per the assay record, what outcome was assigned to `Clc1ccccc1C(c1ccccc1)(c1ccccc1)n1ccnc1` ?
yes (1)

Per the records of this test, what outcome belongs to `CC(=O)N1CCN(c2ccc(OC[C@H]3CO[C@](Cn4ccnc4)(c4ccc(Cl)cc4Cl)O3)cc2)CC1` ?
no (0)

Per the assay record, what outcome was assigned to `c1ccc2n[nH]nc2c1` ?
no (0)

# outcome recorded in this test, key = `CN(C[C@@H](CC[N+]12CCC(C3CCCCC3)(CC1)CC2)c1ccc(Cl)c(Cl)c1)C(=O)c1cc(C(F)(F)F)cc(C(F)(F)F)c1`
yes (1)

Recorded call for `C[C@]12CC[C@@H]3c4ccc(O)cc4CC[C@H]3[C@@H]1CCC2=O` ?
no (0)

Check the results log: what was the call for `O=C1O[C@H]([C@@H](O)CO)C(O)=C1O` ?
no (0)
